target: N-terminal catalytic site of the Angiotensin I converting enzyme (recombinant ACE) (Homo sapiens, UniProt P12821); assay: Inhibition of the N-terminal catalytic site of recombinant ACE (fluorogenic substrate); type: biochemical
Sequence (P12821 40-624 limits assumed, species assumed): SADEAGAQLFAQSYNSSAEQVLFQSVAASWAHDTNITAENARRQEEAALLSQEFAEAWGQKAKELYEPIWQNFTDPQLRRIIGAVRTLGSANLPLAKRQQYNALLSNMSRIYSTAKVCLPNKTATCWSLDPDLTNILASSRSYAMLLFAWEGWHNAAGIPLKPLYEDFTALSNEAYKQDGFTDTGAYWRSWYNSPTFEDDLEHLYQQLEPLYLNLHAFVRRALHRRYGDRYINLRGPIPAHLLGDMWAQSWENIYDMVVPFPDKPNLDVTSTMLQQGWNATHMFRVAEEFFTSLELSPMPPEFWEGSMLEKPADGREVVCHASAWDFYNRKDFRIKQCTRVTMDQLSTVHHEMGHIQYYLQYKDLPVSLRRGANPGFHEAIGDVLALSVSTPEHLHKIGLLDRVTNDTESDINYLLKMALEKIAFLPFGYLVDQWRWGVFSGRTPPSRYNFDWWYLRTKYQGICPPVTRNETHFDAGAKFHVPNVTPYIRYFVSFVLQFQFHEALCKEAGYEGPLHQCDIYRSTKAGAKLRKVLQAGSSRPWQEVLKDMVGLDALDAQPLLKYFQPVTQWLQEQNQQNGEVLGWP
Square brackets hold non-standard residues; d marks the D form. Peptide text beside a SMILES is read from it. pGlu = O=C1CC[C@@H](C(=O)O)N1
Measured attribute: Ki (nM)
# number only, unit nM dropped from output

Please give the measured Ki for this molecule: CC[C@H](C)[C@H](NC(=O)[C@@H]1CCCN1C(=O)[C@@H]1CCCN1C(=O)[C@H](Cc1c[nH]cn1)NC(=O)[C@@H]1CCCN1C(=O)[C@H](C)NC(=O)[C@H](CCCNC(=N)N)NC(=O)CNC(=O)[C@@H]1CCC(=O)N1)C(=O)N1CCC[C@H]1C(=O)N1CCC[C@H]1C(=O)O [EVASIN-11c, <EGRAPHPPIPP] ([pGlu]GRAPHPPIPP-OH; C-terminus assumed)
2000

Please give the measured Ki for this molecule: CC[C@H](C)[C@H](NC(=O)[C@H](CCC(=O)O)NC(=O)[C@@H]1CCCN1C(=O)CNC(=O)[C@@H]1CCCN1C(=O)[C@H](CCCNC(=N)N)NC(=O)[C@@H]1CCCN1C(=O)[C@H](Cc1c[nH]c2ccccc12)NC(=O)CNC(=O)CNC(=O)[C@@H]1CCC(=O)N1)C(=O)N1CCC[C@H]1C(=O)N1CCC[C@H]1C(=O)O [EVASIN-13a, <EGGWPRPGPEIPP] ([pGlu]GGWPRPGPEIPP-OH; C-terminus assumed)
50

Please give the measured Ki for this molecule: CC[C@H](C)[C@H](NC(=O)[C@@H]1CCCN1C(=O)[C@@H]1CCCN1C(=O)CNC(=O)[C@@H]1CCCN1C(=O)[C@@H]1CCCN1C(=O)[C@H](CCCNC(=N)N)NC(=O)CNC(=O)[C@H](Cc1c[nH]c2ccccc12)NC(=O)[C@@H]1CCC(=O)N1)C(=O)N1CCC[C@H]1C(=O)N1CCC[C@H]1C(=O)O [EVASIN-12b, <EWGRPPGPPIPP] ([pGlu]WGRPPGPPIPP-OH; C-terminus assumed)
5

Please give the measured Ki for this molecule: CC[C@H](C)[C@H](NC(=O)[C@H](CCC(N)=O)NC(=O)[C@@H]1CCCN1C(=O)[C@H](CCCNC(=N)N)NC(=O)[C@@H]1CCCN1C(=O)[C@H](Cc1c[nH]c2ccccc12)NC(=O)[C@H](C)NC(=O)[C@H](Cc1c[nH]c2ccccc12)NC(=O)CNC(=O)[C@@H]1CCC(=O)N1)C(=O)N1CCC[C@H]1C(=O)N1CCC[C@H]1C(=O)O [EVASIN-12a, <EGWAWPRPQIPP] ([pGlu]GWAWPRPQIPP-OH; C-terminus assumed)
25
